Source: PubChem BioAssay AID1117328

- SYSTEM: UniProtKB P23443
- Sequence (P23443 whole entry, looked up): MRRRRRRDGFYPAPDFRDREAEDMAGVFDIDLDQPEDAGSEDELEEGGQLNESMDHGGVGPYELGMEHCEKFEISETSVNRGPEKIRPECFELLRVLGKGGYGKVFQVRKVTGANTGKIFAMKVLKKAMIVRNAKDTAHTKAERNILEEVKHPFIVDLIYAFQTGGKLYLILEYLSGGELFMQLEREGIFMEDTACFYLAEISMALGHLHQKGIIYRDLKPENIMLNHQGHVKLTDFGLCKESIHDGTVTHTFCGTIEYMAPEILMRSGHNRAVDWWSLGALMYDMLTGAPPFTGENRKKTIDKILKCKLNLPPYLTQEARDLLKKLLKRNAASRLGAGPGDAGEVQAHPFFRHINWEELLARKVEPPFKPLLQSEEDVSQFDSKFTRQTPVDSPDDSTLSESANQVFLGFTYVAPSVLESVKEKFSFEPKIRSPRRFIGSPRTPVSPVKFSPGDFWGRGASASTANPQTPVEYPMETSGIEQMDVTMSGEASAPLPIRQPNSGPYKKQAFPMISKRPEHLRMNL
- ASSAY NOTES: inhibition of human S6K1 enzyme activity – biochemical, LANCE Ultra TR-FRET (AID 1117328)
- DETAILS: LANCE Ultra TR-FRET kinase assay, p70S6K1; at 20 µM (top of the series)
Reported inhibition is given for each of the following molecules.
MEASUREMENT KIND: inhibition (%)

[[record]]
molecule = "CCCCC1C(=O)N(c2ccccc2)N(c2ccc(O)cc2)C1=O (stereo not drawn)"
system = "UniProtKB P23443"
measurement_kind = "inhibition"
value_observed = 0.82

[[record]]
molecule = "O=[N+]([O-])c1ccc(O)c2ncccc12"
system = "UniProtKB P23443"
measurement_kind = "inhibition"
value_observed = 37.6

[[record]]
molecule = "CC[C@]1(O)C[C@H]2CN(CCc3c([nH]c4ccccc34)[C@@](C(=O)OC)(c3cc4c(cc3OC)N(C=O)[C@H]3[C@@](O)(C(=O)OC)[C@H](OC(C)=O)[C@]5(CC)C=CCN6CC[C@]43[C@@H]65)C2)C1"
system = "UniProtKB P23443"
measurement_kind = "inhibition"
value_observed = 5.42

[[record]]
molecule = "C=C(C)[C@H]1Cc2c(ccc3c2O[C@@H]2COc4cc(OC)c(OC)cc4[C@@H]2C3=O)O1"
system = "UniProtKB P23443"
measurement_kind = "inhibition"
value_observed = -6.37

[[record]]
molecule = "CN1CC[C@H](c2c(O)cc(O)c3c(=O)cc(-c4ccccc4Cl)oc23)[C@H](O)C1"
system = "UniProtKB P23443"
measurement_kind = "inhibition"
value_observed = 48.6

[[record]]
molecule = "Cc1cc(=O)c2c(O)c3c(O)cc(=O)c4c3c3c(cc(O)c1c23)C(C)(C)C=4O"
system = "UniProtKB P23443"
measurement_kind = "inhibition"
value_observed = 12.5

[[record]]
molecule = "CCCOc1ccc2nc(NC(=O)OC)[nH]c2c1"
system = "UniProtKB P23443"
measurement_kind = "inhibition"
value_observed = -4.03

[[record]]
molecule = "O=c1[nH]c(=O)n([C@H]2C[C@H](O)[C@@H](CO)O2)cc1C(F)(F)F"
system = "UniProtKB P23443"
measurement_kind = "inhibition"
value_observed = 5.58

[[record]]
molecule = "COc1c(C)c2c(c(O)c1C/C=C(\\C)CCC(=O)OCCN1CCOCC1)C(=O)OC2"
system = "UniProtKB P23443"
measurement_kind = "inhibition"
value_observed = 1.51

[[record]]
molecule = "CCCCc1oc2ccccc2c1C(=O)c1cc(I)c(OCCN(CC)CC)c(I)c1"
system = "UniProtKB P23443"
measurement_kind = "inhibition"
value_observed = -4.08

[[record]]
molecule = "Nc1ccc2cc3ccc(N)cc3nc2c1"
system = "UniProtKB P23443"
measurement_kind = "inhibition"
value_observed = -285

[[record]]
molecule = "Cc1ccc([N+](=O)[O-])[c]2c1[O][Hg]2"
system = "UniProtKB P23443"
measurement_kind = "inhibition"
value_observed = 33.5

[[record]]
molecule = "Cc1ccc(Nc2nccc(N(C)c3ccc4c(C)n(C)nc4c3)n2)cc1S(N)(=O)=O"
system = "UniProtKB P23443"
measurement_kind = "inhibition"
value_observed = 5.82

